- System: Aphis gossypii
- assayText: Aphis gossypii test, Example G (sprayed to runoff, ammonium salt plus penetrant)
- Format: in vivo
- conditions: 20 ppm active ingredient; +AS (1000 ppm)
valueType: Degree of destruction/% after 6 days (%)
Answer in %, number only, no unit symbol.

>  <molecule>
Cc1ccc(-c2ccc(Cl)cc2)cc1C1=C(O)C(C)(C)C(C)(C)OC1=O [Example I-10-a-1]

>  <testedTarget>
Aphis gossypii

>  <valueType>
Degree of destruction/% after 6 days

>  <experimentalValue>
45

$$$$
>  <molecule>
Cc1ccc(-c2ccc(Cl)cc2)cc1C1=C(O)C(C)(C)OC1=O [Example I-2-a-3]

>  <testedTarget>
Aphis gossypii

>  <valueType>
Degree of destruction/% after 6 days

>  <experimentalValue>
30

$$$$
>  <molecule>
CCOC(=O)OC1=C(c2c(C)cc(C)cc2C)C(=O)NC12CCC(COC)CC2 (centres unmarked) [Example I-1-c-2]

>  <testedTarget>
Aphis gossypii

>  <valueType>
Degree of destruction/% after 6 days

>  <experimentalValue>
85

$$$$
>  <molecule>
Cc1ccc(-c2ccc(Cl)cc2)c(C)c1C1C(=O)N2CCOCCN2C1=O [Example I-8-a-3]

>  <testedTarget>
Aphis gossypii

>  <valueType>
Degree of destruction/% after 6 days

>  <experimentalValue>
50

$$$$

Attention now shifts to the item below.
Query: Lookup: Degree of destruction/% after 6 days / Aphis gossypii / COCC1CCC2(CC1)NC(=O)C(c1c(C)cc(Cl)cc1Cl)=C2O (centres unmarked) [Example I-1-a-16]
Result: 85

====

- System: Aphis gossypii
- assayText: Aphis gossypii test, Example E (sprayed to runoff, ammonium salt boosting)
- Type: in vivo
- conditions: 20 ppm active ingredient; no additive
Mark Y only for Degree of destruction/% after 6 days values smaller than 70%; exact matches and larger values are N.

A selection of reference data follows.
>  <molecule>
COC1CCC2(CC1)NC(=O)C(c1cc(C)ccc1Br)=C2O (centres unmarked)

>  <assignedCategory>
Y

$$$$
>  <molecule>
COCC1CCC2(CC1)NC(=O)C(c1c(C)cc(Cl)cc1C)=C2O (centres unmarked)

>  <assignedCategory>
N

$$$$
>  <molecule>
Cc1ccc(-c2ccc(Cl)cc2)cc1C1=C(O)C(C)(C)OC1=O

>  <assignedCategory>
Y

$$$$

With those in mind, consider the next molecule.
Query: # TODO verify Degree of destruction/% after 6 days < 70% strictly for this molecule: `CO[C@H]1CC[C@]2(CC1)NC(=O)C(c1c(C)cc(I)cc1C)=C2O`
Result: N

====

- Test system: Myzus persicae
- assayText: Myzus persicae test, Example D (sprayed to runoff, ammonium salt boosting)
- Format: in vivo
- conditions: 4 ppm active ingredient; no additive
The compounds listed here are annotated with their Degree of destruction/% after 6 days.
Answer in %, number only, no unit symbol.

>  <compound>
COC1CCC2(CC1)OC(=O)C(c1c(C)cc(C)cc1C)=C2O (centres unmarked) [Example I-2-a-1]

>  <uom>
%

>  <Degree of destruction/% after 6 days>
90

$$$$
>  <compound>
Cc1cc(Br)cc(C)c1-c1c(O)c(C)c(-c2ccccn2)oc1=O [Example I-4-a-3]

>  <uom>
%

>  <Degree of destruction/% after 6 days>
5

$$$$
>  <compound>
COC1CCC2(CC1)NC(=O)C(c1cc(C)c(Cl)cc1C)=C2O (centres unmarked) [Example I-1-a-10]

>  <uom>
%

>  <Degree of destruction/% after 6 days>
0

$$$$
>  <compound>
COc1cc(C)cc(C)c1-c1c(O)c(C)c(-c2ccccn2)oc1=O [Example I-4-a-1]

>  <uom>
%

>  <Degree of destruction/% after 6 days>
0

$$$$
>  <compound>
Cc1cc(Cl)cc(C)c1C1=C(O)C2(CCC3(CC2)OCCO3)NC1=O [Example I-1-a-4]

>  <uom>
%

>  <Degree of destruction/% after 6 days>
40

$$$$
>  <compound>
CO[C@H]1CC[C@]2(CC1)NC(=O)C(c1c(C)cc(I)cc1C)=C2O [Example I-1-a-7]

>  <uom>
%

>  <Degree of destruction/% after 6 days>
40

$$$$
>  <compound>
COc1cc(C)cc(C)c1C1=C(O)C2(CCC(OC)CC2)OC1=O (centres unmarked) [Example I-2-a-2]

>  <uom>
%

>  <Degree of destruction/% after 6 days>
65

$$$$

Attention now shifts to the item below.
Query: What value of Degree of destruction/% after 6 days has been recorded for this entry: Cc1ccc(-c2ccc(Cl)cc2)cc1C1=C(O)C(C)(C)NC1=O [Example I-1-a-3]
Result: 0

====

- Test system: Myzus persicae
- assayText: Myzus persicae test, Example D (sprayed to runoff, ammonium salt boosting)
- Format: in vivo
- conditions: 20 ppm active ingredient; +AS (1000 ppm)
The compounds listed here are annotated with their Degree of destruction/% after 6 days.
Answer in %, number only, no unit symbol.

>  <compound>
COC1CCC2(CC1)NC(=O)C(c1c(Cl)cc(Cl)c(C)c1Cl)=C2O (stereo not shown) [Example I-1-a-12]

>  <Degree of destruction/% after 6 days (%)>
65

$$$$
>  <compound>
COC1CCC2(CC1)NC(=O)C(c1cc(C)ccc1Br)=C2O (stereo not shown) [Example I-1-a-11]

>  <Degree of destruction/% after 6 days (%)>
70

$$$$
>  <compound>
Cc1cc(Cl)cc(C)c1C1=C(O)C2(CCC3(CC2)OCCO3)NC1=O [Example I-1-a-4]

>  <Degree of destruction/% after 6 days (%)>
98

$$$$
>  <compound>
Cc1ccc(-c2ccc(Cl)cc2)cc1C1=C(O)C(C)(C)OC1=O [Example I-2-a-3]

>  <Degree of destruction/% after 6 days (%)>
15

$$$$
>  <compound>
COc1cc(C)cc(C)c1-c1c(O)sc(-c2ccc(F)cc2)nc1=O [Example I-5-a-1]

>  <Degree of destruction/% after 6 days (%)>
55

$$$$
>  <compound>
COc1cc(C)cc(Cl)c1C1=C(O)C2(CCC(OC)CC2)OC1=O (stereo not shown) [Example I-2-a-4]

>  <Degree of destruction/% after 6 days (%)>
80

$$$$

Query: What value of Degree of destruction/% after 6 days has been recorded for this entry: Cc1ccc(-c2ccc(Cl)cc2)cc1C1=C(O)C(C)(C)NC1=O [Example I-1-a-3]
Result: 75

====

- System: Myzus persicae
- assayText: Myzus persicae test, Example D (sprayed to runoff, ammonium salt boosting)
- Type: in vivo
- conditions: 4 ppm active ingredient; +AS (1000 ppm)
valueType: Degree of destruction/% after 6 days (%)
Answer in %, number only, no unit symbol.

Sample answers from the record:
>  <compound>
COC1CCC2(CC1)OC(=O)C(c1c(C)cc(C)cc1C)=C2O (centres unmarked) [Example I-2-a-1]

>  <valueType>
Degree of destruction/% after 6 days

>  <experimentalValue>
98

$$$$
>  <compound>
COc1cc(C)cc(C)c1-c1c(O)c(C)c(-c2ccccn2)oc1=O [Example I-4-a-1]

>  <valueType>
Degree of destruction/% after 6 days

>  <experimentalValue>
45

$$$$
>  <compound>
COC1CCC2(CC1)NC(=O)C(c1cc(C)c(Cl)cc1C)=C2O (centres unmarked) [Example I-1-a-10]

>  <valueType>
Degree of destruction/% after 6 days

>  <experimentalValue>
35

$$$$
>  <compound>
Cc1ccc(-c2ccc(Cl)cc2)cc1C1=C(O)C(C)(C)NC1=O [Example I-1-a-3]

>  <valueType>
Degree of destruction/% after 6 days

>  <experimentalValue>
90

$$$$
>  <compound>
Cc1cc(Br)cc(C)c1-c1c(O)c(C)c(-c2ccccn2)oc1=O [Example I-4-a-3]

>  <valueType>
Degree of destruction/% after 6 days

>  <experimentalValue>
70

$$$$

Query: What value of Degree of destruction/% after 6 days has been recorded for this entry: CO[C@H]1CC[C@]2(CC1)NC(=O)C(c1c(C)cc(I)cc1C)=C2O [Example I-1-a-7]
Result: 80

Query: What value of Degree of destruction/% after 6 days has been recorded for this entry: Cc1cc(Cl)cc(C)c1C1=C(O)C2(CCC3(CC2)OCCO3)NC1=O [Example I-1-a-4]
Result: 65

Query: What value of Degree of destruction/% after 6 days has been recorded for this entry: COc1cc(C)cc(C)c1C1=C(O)C2(CCC(OC)CC2)OC1=O (centres unmarked) [Example I-2-a-2]
Result: 90

====

- Test system: Aphis gossypii
- assayText: Aphis gossypii test, Example G (sprayed to runoff, ammonium salt plus penetrant)
- Assay type: in vivo
- conditions: 0.8 ppm active ingredient; +RME +AS (each 1000 ppm)
Mark TRUE only for Degree of destruction/% after 6 days values smaller than 70%; exact matches and larger values are FALSE.

>  <compound>
Cc1cc(Cl)cc(C)c1C1=C(O)C2(CCC3(CC2)OCCO3)NC1=O

>  <assignedCategory>
FALSE

$$$$

Query: # TODO verify Degree of destruction/% after 6 days < 70% strictly for this compound: COC1CCC2(CC1)NC(=O)C(c1c(Cl)cc(Cl)c(C)c1Cl)=C2O (centres unmarked)
Result: TRUE

Query: # TODO verify Degree of destruction/% after 6 days < 70% strictly for this compound: `COc1cc(C)cc(C)c1-c1c(O)c(C)c(-c2ccccn2)oc1=O`
Result: TRUE
